Recorded values, source ChEMBL document CHEMBL5724796.

Molecular target: Tyrosine-protein kinase ABL1 (Homo sapiens)
Details: Compound concentration 20.0 uM
Description: Thermal Shift Assay. Domain: start/stop: S229-K512
EXPERIMENTAL_ENDPOINT: ΔTm (°C)
Respond numerically; units are °C and should not be typed.

O=C(c1cc(Cc2n[nH]c(=O)c3ccccc23)ccc1F)N1CC(CNC2CC2)C1 | 0.54
O=C(O)C1CCCN(CCC=C(c2ccccc2)c2ccccc2)C1 (centres undefined) | 0.13
CCCOC(=O)N1CCN(C(=O)c2ccc3c(Cl)cc(-c4ccc(C5(N)CC5)cc4)nc3c2)C[C@H]1C | 0.57
CCCCOc1c(OC)cc(C(=O)NCC2(N(C)C)CCOCC2)cc1OC | 0.07
CNC(=O)c1cnc(N2CCC[C@H](N)C2)nc1Nc1cc(C(C)C)nc(C(C)C)c1 | 0.5

Fill in ΔTm for O=C(NO)c1ccc(CN(c2cnccn2)c2cnccn2)cc1 tested with Tyrosine-protein kinase ABL1 (Homo sapiens). 0.4

Fill in ΔTm for NS(=O)(=O)OC[C@H]1C[C@@H](Nc2ncncc2C(=O)c2ccn(Cc3cccc(Br)c3)n2)C[C@@H]1O tested with Tyrosine-protein kinase ABL1 (Homo sapiens). 0.71

Fill in ΔTm for O=C(Nc1ccccc1C(=O)O)c1cc(S(=O)(=O)c2ccccc2)ccc1Cl tested with Tyrosine-protein kinase ABL1 (Homo sapiens). 0.57

Fill in ΔTm for Cc1c(F)c(N)cc(C(=O)Nc2cc(-n3cc(C(=O)NCCCN4CCOCC4)nn3)ccc2N2CCN(C)CC2)c1Cl tested with Tyrosine-protein kinase ABL1 (Homo sapiens). 0.14
